Cited source for all entries: PubChem BioAssay (NCI)

System: OVCAR-8 ovarian
Experiment: NCI-60 one-dose screen, 48 h (100 = growth as untreated, 0 = no growth, -100 = all killed)
Details: 10 µM unless noted
This is part of a sample that, as a whole, favours compounds with a hit. Of some 83,000 tested, about 20% had one in any assay.
// growth lookup, one value per entry
// return numeric value only (unit: %, not printed)

Below, 4 compounds whose answers are already recorded.
compound | unitAnnotation | growth
C=CCn1c(SCC(=O)Nc2ccc(C(=O)/C=C/c3cc(OC)c(OC)c(OC)c3)cc2)nnc1-c1ccccc1 | % | 86.8
NC(=O)CN1C(=O)c2ccccc2C1=O | % | 103
COc1cc(-c2csc(NC(=O)Nc3ccc(Cl)cc3)n2)cc(OC)c1OC | % | 10.4
N#Cc1ccc(C2C3=C(CCCC3=O)OC3=C2C(=O)c2ccccc2C3=O)cc1 (stereo unspecified) | % | 1.88

Query: Assign growth to the following record: Cc1cc(O)cc(O)c1N=NC1=NCCS1
Reply: 101

Query: Assign growth to the following record: CN(C)CSc1nc2ccccc2s1
Reply: 104
